# Tested on: Intestinal organoid from Göttingen minipig jejunum tissue, 2D monolayer
# assay_info: Cell based in vitro permeability (Papp) assay
# Type: in vitro ADME
Starred links: 1 amine or outer side, 2 acyl side, 3 side chain; linkers in the order of their positions; H or OH if unused. Non-standard residues stand in square brackets, D forms with d. Groups on a side chain read outwards from the residue. *: point of attachment. C18 diacid = O=C(O)CCCCCCCCCCCCCCCCC(=O)*; αMePhe(2-F) = C[C@](N)(Cc1ccccc1F)C(=O)O; γGlu = O=C(O)[C@H](CCC(=O)[*:2])N[*:1]; αMe4Pal = C[C@](N)(Cc1ccncc1)C(=O)O; αMeY = C[C@](N)(Cc1ccc(O)cc1)C(=O)O; 4Pal = N[C@@H](Cc1ccncc1)C(=O)O; αMeL = CC(C)C[C@](C)(N)C(=O)O; αMeS = C[C@](N)(CO)C(=O)O; Orn = NCCC[C@H](N)C(=O)O; AEEA = NCCOCCOCC(=O)O; Aib = CC(C)(N)C(=O)O
Reported Relative Papp (Compared to internal standard) values for the following substances.
Just the number, please, no unit attached.

Look over these answered cases.
{"substance": "H-Y[Aib]QGT[αMePhe(2-F)]TSD[4Pal]SILLD[Orn]K([AEEA-γGlu-C18 diacid])AQ[αMe4Pal]EFI[dE][αMeY]LLEGGPSSGAPPPSGS-NH2 (C-terminus assumed) [Example 670]", "endpoint_value": 0.46}
{"substance": "H-Y[Aib]QGTFTSD[4Pal]SR[αMeL]LDKK([AEEA-γGlu-C18 diacid])AQ[αMe4Pal]AFIEYLIE[Aib]GESSGAPPPSGE-NH2 [Example 225]", "endpoint_value": 0.48}
{"substance": "H-Y[Aib]QGT[αMePhe(2-F)]TSD[4Pal][αMeS]I[αMeL]LD[Orn]K([AEEA-γGlu-C18 diacid])AQ[αMe4Pal]EFI[dE][αMeY]LIEGGPSSGEPPPSGS-NH2 [Example 710]", "endpoint_value": 0.35}
{"substance": "H-Y[Aib]QGTFTSD[4Pal]SQ[αMeL]LDKK([AEEA-γGlu-C18 diacid])AQ[αMe4Pal]AFIEYLIE[Aib]GESSGAPPPSGS-NH2 [Example 226]", "endpoint_value": 0.36}
{"substance": "H-Y[Aib]QGT[αMePhe(2-F)]TSD[4Pal]SI[αMeL]LD[Orn]K([γGlu-γGlu-C18 diacid])AQ[αMe4Pal][Orn]FI[dE][αMeY]LIEGGPSSGEPPPETE-NH2 [Example 686]", "endpoint_value": 0.60}

Task item: Form field - read-out: Relative Papp (Compared to internal standard); system: Intestinal organoid from Göttingen minipig jejunum tissue, 2D monolayer; submitted item: H-Y[Aib]QGTFTSDFS[Orn][αMeL]LDKK([γGlu-AEEA-γGlu-C18 diacid])AQ[Aib]AFIEYLLE[Aib]GPSSGAPPPSGS-NH2 [Example 193]
Reply: 0.17

Task item: Form field - read-out: Relative Papp (Compared to internal standard); system: Intestinal organoid from Göttingen minipig jejunum tissue, 2D monolayer; submitted item: H-Y[Aib]QGTFTSDFS[Orn][αMeL]LDKK([AEEA-γGlu-C18 diacid])AQ[Aib]AFIEWLLEGGSSSGAPPPSGT-NH2 [Example 174]
Reply: 0.12

Task item: Form field - read-out: Relative Papp (Compared to internal standard); system: Intestinal organoid from Göttingen minipig jejunum tissue, 2D monolayer; submitted item: H-Y[Aib]QGT[αMePhe(2-F)]TSD[4Pal][αMeS]I[αMeL]LD[Orn]K([AEEA-γGlu-C18 diacid])AQ[αMe4Pal]EFI[dE][αMeY]LVEGGPSSGAPPPSGS-NH2 [Example 694]
Reply: 0.60

Task item: Form field - read-out: Relative Papp (Compared to internal standard); system: Intestinal organoid from Göttingen minipig jejunum tissue, 2D monolayer; submitted item: H-Y[Aib]QGT[αMePhe(2-F)]TSD[4Pal][αMeS]I[αMeL]LD[Orn]K([γGlu-γGlu-C18 diacid])AQ[αMe4Pal]EFI[dE][αMeY]LVEGGPSSGAPPPSGS-NH2 [Example 696]
Reply: 0.77

Task item: Form field - read-out: Relative Papp (Compared to internal standard); system: Intestinal organoid from Göttingen minipig jejunum tissue, 2D monolayer; submitted item: H-Y[Aib]QGTFTSD[4Pal]SQ[αMeL]LD[Orn]K([Glu-γGlu-C18 diacid])AQ[αMe4Pal]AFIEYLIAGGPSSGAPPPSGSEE-NH2 [Example 1033]
Reply: 0.14

Task item: Form field - read-out: Relative Papp (Compared to internal standard); system: Intestinal organoid from Göttingen minipig jejunum tissue, 2D monolayer; submitted item: H-Y[Aib]QGTFTSDYSR[αMeL]LDKK([AEEA-γGlu-C18 diacid])AQ[Aib]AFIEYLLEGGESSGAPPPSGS-NH2 [Example 361]
Reply: 0.10
